Reference source: paper PMC10138654

Target: M1mAChR (Homo sapiens, UniProt P11229)
Construct: host or cells: HEK-293T
Assay: cell-based
Settings: dose-response curve; unit inferred; read-out: EC50, β-arrestin2 interaction with M1mAChR (BRET), Figure 4
Sequence (P32121 whole entry partner, one chain of several): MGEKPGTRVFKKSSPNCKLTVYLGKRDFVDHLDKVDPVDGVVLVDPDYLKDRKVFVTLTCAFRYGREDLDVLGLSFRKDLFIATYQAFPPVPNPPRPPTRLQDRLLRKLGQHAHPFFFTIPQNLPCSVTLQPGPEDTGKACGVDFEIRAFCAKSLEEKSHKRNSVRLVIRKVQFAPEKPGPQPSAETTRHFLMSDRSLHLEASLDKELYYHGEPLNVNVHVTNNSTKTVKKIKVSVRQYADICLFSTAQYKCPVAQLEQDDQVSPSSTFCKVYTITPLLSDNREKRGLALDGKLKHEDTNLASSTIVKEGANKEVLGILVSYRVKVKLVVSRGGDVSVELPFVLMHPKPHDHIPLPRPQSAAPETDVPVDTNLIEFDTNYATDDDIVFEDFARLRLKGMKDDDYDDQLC

Molecule: C[N+](C)(C)CC#CCOC(=O)Nc1cccc(Cl)c1
Unit Symbol: nM
EC50: 981
--
Molecule: C[N+](C)(C)CC#CCOC1=NOCC1
Unit Symbol: nM
EC50: 72

----------
Target: M1mAChR (Homo sapiens, UniProt P11229)
Construct: host or cells: HEK-293T
Experiment: cell-based
Settings: read-out: EC50, β-arrestin2 binding to M1mAChR (BRET)
pEC50: −log10 of the molar value.
Form field: pEC50 (one value per entry).
Measured Property: pEC50

Molecule: C[N+](C)(C)CC#CCOC(=O)Nc1cccc(Cl)c1
Reported: 6.01
--
Molecule: C[N+](C)(C)CC#CCOC1=NOCC1
Reported: 7.14

----------
Molecular target: UniProt P11229
Sequence (P11229 1-460): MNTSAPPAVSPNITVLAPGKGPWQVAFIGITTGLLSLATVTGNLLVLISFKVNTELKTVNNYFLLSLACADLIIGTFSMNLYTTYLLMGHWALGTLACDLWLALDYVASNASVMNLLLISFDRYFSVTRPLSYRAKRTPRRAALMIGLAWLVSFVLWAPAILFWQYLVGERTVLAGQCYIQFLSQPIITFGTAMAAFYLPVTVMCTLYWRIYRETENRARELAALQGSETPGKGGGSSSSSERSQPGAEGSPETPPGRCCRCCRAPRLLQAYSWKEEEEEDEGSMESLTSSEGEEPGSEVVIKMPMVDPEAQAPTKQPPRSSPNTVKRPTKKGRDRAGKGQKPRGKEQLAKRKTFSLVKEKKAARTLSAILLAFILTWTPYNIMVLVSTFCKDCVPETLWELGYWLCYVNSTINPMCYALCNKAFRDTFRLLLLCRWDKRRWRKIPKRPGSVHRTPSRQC
Test: cell-based
Conditions: CHO-M1 cells; unit inferred; read-out: EC50, Fluo4-AM calcium, printed in Figure 6 panels B-G
Form field: EC50 (one value per entry).
Measured Property: EC50 (nM)

Molecule: C[N+](C)(C)CC#CCOC1=NOCC1
Reported: 12.5
//
Molecule: C[N+](C)(C)CC#CCOC(=O)Nc1cccc(Cl)c1
Reported: 718

----------
Biological target: M1mAChR (Homo sapiens, UniProt P11229)
Construct: host or cells: HEK-293T
Test: cell-based
Conditions: HEK293T cells; dose-response curve; unit inferred; read-out: EC50, Gαq interaction with M1mAChR (BRET), in Figure 2 panels
Sequence (P50148 whole entry partner, one chain of several): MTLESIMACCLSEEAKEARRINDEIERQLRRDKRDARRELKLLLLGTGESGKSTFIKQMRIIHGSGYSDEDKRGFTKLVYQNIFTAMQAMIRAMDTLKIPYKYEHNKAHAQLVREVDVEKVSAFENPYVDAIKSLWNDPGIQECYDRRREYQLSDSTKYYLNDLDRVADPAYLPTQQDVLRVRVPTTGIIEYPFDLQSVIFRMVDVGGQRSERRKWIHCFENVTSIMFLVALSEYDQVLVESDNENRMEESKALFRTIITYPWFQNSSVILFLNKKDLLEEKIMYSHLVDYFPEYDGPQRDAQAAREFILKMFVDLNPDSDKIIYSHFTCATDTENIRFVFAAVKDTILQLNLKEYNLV
Sequence (P62879 2-340 partner limits assumed, one chain of several): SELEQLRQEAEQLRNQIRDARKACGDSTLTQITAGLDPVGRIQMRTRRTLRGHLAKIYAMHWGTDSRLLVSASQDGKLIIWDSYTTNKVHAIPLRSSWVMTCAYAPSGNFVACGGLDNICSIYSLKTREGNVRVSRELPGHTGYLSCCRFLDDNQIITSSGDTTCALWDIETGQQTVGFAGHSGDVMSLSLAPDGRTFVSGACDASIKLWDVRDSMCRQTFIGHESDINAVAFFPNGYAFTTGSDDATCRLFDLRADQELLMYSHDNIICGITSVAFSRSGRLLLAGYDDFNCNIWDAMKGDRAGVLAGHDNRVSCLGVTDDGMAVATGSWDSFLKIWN
Sequence (P59768 2-68 partner limits assumed, one chain of several): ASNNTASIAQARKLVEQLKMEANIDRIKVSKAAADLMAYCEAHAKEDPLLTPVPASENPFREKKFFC
Form field: EC50 (one value per entry).

Molecule: C[N+](C)(C)CC#CCOC(=O)Nc1cccc(Cl)c1
Measured Target: M1mAChR (Homo sapiens, UniProt P11229)
Unit Symbol: nM
EC50: 11.1
--
Molecule: C[N+](C)(C)CC#CCOC1=NOCC1
Measured Target: M1mAChR (Homo sapiens, UniProt P11229)
Unit Symbol: nM
EC50: 24.8
